Listing of entries alongside the reported IC50.
# System: VA13 cell line
# assay-summary: MTT cytotoxicity assay, VA13
# Type: cell-based, human
# cond: VA13, MTT, Table S1; read-out: IC50 (concentration resulting in half of the maximal cytotoxic effect)
readout-name: IC50 (µM)

# molecule, meas-value
data = [
    ("CC1=C(C)CC2(CC1)NC(=S)N(c1ccccc1Cl)C2=O (racemic) [Compound 55]", 1.9),
    ("CC1=C(C)CC2(CC1)NC(=S)N(c1c(C)cccc1C)C2=O (racemic) [Compound 61]", 0.4),
]

----------
Listed below: IC50 values for each entry.
# System: A549 cell line
# assay-summary: MTT cytotoxicity assay, A549
# Type: cell-based, human
# cond: A549, MTT, Table S1; read-out: IC50 (concentration resulting in half of the maximal cytotoxic effect)

# compound, system-under-test, display-unit, IC50
records = [
    ("CC1=C(C)CC2(CC1)NC(=S)N(c1ccccc1Cl)C2=O (racemic)", "A549 cell line", "µM", 2.1),
    ("CC1=C(C)CC2(CC1)NC(=S)N(c1c(C)cccc1C)C2=O (racemic)", "A549 cell line", "µM", 4.2),
]
